The measurements presented in this section are drawn from patent US20240360178A1.

Target Of Assay: human PD-1 (Jurkat-PD-1 cells) / PE-labeled human PD-L1-Ig (Homo sapiens, UniProt Q15116)
Construct: expressed in transfected cells; host or cells: Jurkat cell line over-expressing human PD-1
Sequence (Q15116 25-288): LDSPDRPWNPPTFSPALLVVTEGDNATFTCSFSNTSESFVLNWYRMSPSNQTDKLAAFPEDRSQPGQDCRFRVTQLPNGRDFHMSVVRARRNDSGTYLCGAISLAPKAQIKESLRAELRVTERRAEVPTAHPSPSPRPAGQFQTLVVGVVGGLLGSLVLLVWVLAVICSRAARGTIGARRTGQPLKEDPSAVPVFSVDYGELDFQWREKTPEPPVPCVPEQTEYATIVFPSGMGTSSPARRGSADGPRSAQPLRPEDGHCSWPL
Assay: Jurkat-PD-1 Cell Binding High-Content Screening Assay (CBA); Jurkat hPD1-PDL1 assay
Condition Label: Jurkat cell line over-expressing human PD-1; PE-labeled PD-L1-Ig 20 nM final; compound incubated 2 hours at 37° C.; read-out: Jurkat HPD1-PDL1 IC50
Positions of bridges follow the written chain, without caps; N, C: chain ends. Non-standard residues stand in square brackets, D forms with d. Residues, ends and D or L forms follow the SMILES beside them. Bip = N[C@@H](Cc1ccc(-c2ccccc2)cc1)C(=O)O; Phe(3-CN) = N#Cc1cccc(C[C@H](N)C(=O)O)c1; Phe(3-OMe) = COc1cccc(C[C@H](N)C(=O)O)c1; NMeF = CN[C@@H](Cc1ccccc1)C(=O)O; NMeA = CN[C@@H](C)C(=O)O; Dap = NC[C@H](N)C(=O)O
Consider the following compounds and their measured IC50 readings.
Answer format: numeric, nM implied, no suffix.

Compound	IC50 [nM]
COc1cccc(C[C@@H]2NC(=O)[C@H](CC(=O)O)NC(=O)[C@H](Cc3cccc(C#N)c3)NC(=O)[C@H](CN)NC(=O)CSC[C@@H](C(=O)N[C@@H](C)C(N)=O)NC(=O)[C@H](CO)NC(=O)[C@H](C(C)C)NC(=O)[C@H](CC(C)C)NC(=O)[C@H](CC(N)=O)NC(=O)[C@H]3CCCN3C(=O)[C@H](C)N(C)C(=O)[C@H](C(C)C)NC(=O)[C@H](Cc3ccc(-c4ccccc4)cc3)NC(=O)[C@H](CC(C)C)NC2=O)c1 [Example 1393] ({CH2CO}-[Dap][Phe(3-CN)]D[Phe(3-OMe)]L[Bip]V[NMeA][dP]NLVSCA-NH2; thioether N-14)	20

QUERY: Query (compound): CC(C)C[C@@H]1NC(=O)[C@H](Cc2c[nH]c3ccccc23)NC(=O)[C@H](CC(=O)O)NC(=O)[C@H](Cc2ccc(O)cc2)NC(=O)[C@H](Cc2ccccc2)NC(=O)CSC[C@@H](C(=O)NCC(N)=O)NC(=O)[C@H](CO)NC(=O)[C@H](C(C)C)NC(=O)[C@H](CC(C)C)NC(=O)[C@H](CC(N)=O)NC(=O)[C@H](Cc2ccccc2)N(C)C(=O)[C@H](C)N(C)C(=O)[C@H](C(C)C)NC(=O)[C@H](Cc2ccc(-c3ccccc3)cc2)NC1=O [Example 1205] ({CH2CO}-FYDWL[Bip]V[NMeA][NMeF]NLVSCG-NH2; thioether N-14) ; field requested: IC50
RESULT: 440

###

Target Of Assay: human PD-1 (Jurkat-PD-1 cells) / PE-labeled human PD-L1-Ig (Homo sapiens, UniProt Q15116)
Construct: expressed in transfected cells; host or cells: Jurkat cell line over-expressing human PD-1
Assay: Jurkat-PD-1 Cell Binding High-Content Screening Assay (CBA); Jurkat hPD1-PDL1 assay
Condition Label: Jurkat cell line over-expressing human PD-1; PE-labeled PD-L1-Ig 20 nM final; compound incubated 2 hours at 37° C.; read-out: Jurkat HPD1-PDL1 IC50
pIC50: −log10 of the molar value. Positions of bridges follow the written chain, without caps; N, C: chain ends. Non-standard residues stand in square brackets, D forms with d. Residues, ends and D or L forms follow the SMILES beside them. Bip = N[C@@H](Cc1ccc(-c2ccccc2)cc1)C(=O)O; NMeF = CN[C@@H](Cc1ccccc1)C(=O)O; NMeA = CN[C@@H](C)C(=O)O; Orn = NCCC[C@H](N)C(=O)O; Dab = NCC[C@H](N)C(=O)O; Dap = NC[C@H](N)C(=O)O; Sar = CNCC(=O)O
Label true when pIC50 >= 7; otherwise false.

Compound	Assigned Label
CC(C)C[C@@H]1NC(=O)[C@H](Cc2ccccc2)NC(=O)[C@H](CC(=O)O)NC(=O)[C@H](Cc2ccc(O)cc2)NC(=O)[C@H](Cc2ccccc2)NC(=O)CSC[C@@H](C(=O)NCC(N)=O)NC(=O)[C@H](CO)NC(=O)[C@H](C(C)C)NC(=O)[C@H](CC(C)C)NC(=O)[C@H](CC(N)=O)NC(=O)CN(C)C(=O)[C@H](C)N(C)C(=O)[C@H](C(C)C)NC(=O)[C@H](Cc2ccc(-c3ccccc3)cc2)NC1=O [Example 1088] ({CH2CO}-FYDFL[Bip]V[NMeA][Sar]NLVSCG-NH2; thioether N-14)	false
CC(C)C[C@@H]1NC(=O)[C@H](Cc2c[nH]c3ccccc23)NC(=O)[C@H](CC(=O)O)NC(=O)[C@H](Cc2ccc(O)cc2)NC(=O)[C@H](Cc2ccccc2)NC(=O)CSC[C@@H](C(=O)N[C@@H](CCN)C(N)=O)NC(=O)[C@H](CO)NC(=O)[C@H](C(C)C)NC(=O)[C@H](CC(C)C)NC(=O)[C@H](CC(N)=O)NC(=O)CN(C)C(=O)[C@H](C)N(C)C(=O)[C@H](C(C)C)NC(=O)[C@H](Cc2ccc(-c3ccccc3)cc2)NC1=O [Example 1103] ({CH2CO}-FYDWL[Bip]V[NMeA][Sar]NLVSC[Dab]-NH2; thioether N-14)	false
CC(C)C[C@@H]1NC(=O)[C@H](Cc2c[nH]c3ccccc23)NC(=O)[C@H](CC(=O)O)NC(=O)[C@H](Cc2ccc(O)cc2)NC(=O)[C@H](Cc2ccccc2)NC(=O)CSC[C@@H](C(=O)N[C@@H](C)C(N)=O)NC(=O)[C@H]([C@@H](C)O)NC(=O)[C@H](C(C)C)NC(=O)[C@H](CC(C)C)NC(=O)[C@H](CC(N)=O)NC(=O)[C@H]2CCCN2C(=O)[C@H](CCCN)NC(=O)[C@H](C(C)C)NC(=O)[C@H](Cc2ccc(-c3ccccc3)cc2)NC1=O [Example 1418] ({CH2CO}-FYDWL[Bip]V[Orn][dP]NLVTCA-NH2; thioether N-14)	false
CC(C)C[C@@H]1NC(=O)[C@H](Cc2c[nH]c3ccccc23)NC(=O)[C@H](CC(=O)O)NC(=O)[C@H](Cc2ccc(O)cc2)NC(=O)[C@H](Cc2ccccc2)NC(=O)CSC[C@@H](C(=O)N[C@@H](C)C(N)=O)NC(=O)[C@H](CO)NC(=O)[C@H](C(C)C)NC(=O)[C@H](CC(C)C)NC(=O)[C@H](CC(N)=O)NC(=O)[C@H]2CCCN2C(=O)[C@H](C)N(C)C(=O)[C@H](CCCNC(=N)N)NC(=O)[C@H](Cc2ccc(-c3ccccc3)cc2)NC1=O [Example 1027] ({CH2CO}-FYDWL[Bip]R[NMeA][dP]NLVSCA-NH2; thioether N-14)	true

QUERY: Form field: pIC50 at least 7? Entry: CC(C)C[C@@H]1NC(=O)[C@H](Cc2c[nH]c3ccccc23)NC(=O)[C@H](CC(=O)O)NC(=O)[C@H](Cc2ccc(O)cc2)NC(=O)[C@H](Cc2ccccc2)NC(=O)CSC[C@@H](C(=O)N[C@@H](CN)C(N)=O)NC(=O)[C@H](CO)NC(=O)[C@H](C(C)C)NC(=O)[C@H](CC(C)C)NC(=O)[C@H](CC(N)=O)NC(=O)CN(C)C(=O)[C@H](C)N(C)C(=O)[C@H](C(C)C)NC(=O)[C@H](Cc2ccc(-c3ccccc3)cc2)NC1=O [Example 1168] ({CH2CO}-FYDWL[Bip]V[NMeA][Sar]NLVSC[Dap]-NH2; thioether N-14)
RESULT: false

QUERY: Confirm if pIC50 reported for the compound CC(C)C[C@@H]1NC(=O)[C@H](CCCNC(=N)N)NC(=O)[C@H](Cc2ccccc2)N(C)C(=O)[C@H](C)N(C)C(=O)[C@H](CCCNC(=N)N)NC(=O)[C@H](Cc2ccc(-c3ccccc3)cc2)NC(=O)[C@H](C(C)C)NC(=O)[C@H](Cc2c[nH]c3ccccc23)NC(=O)[C@H](CC(=O)O)NC(=O)[C@H](Cc2ccc(O)cc2)NC(=O)[C@H](CCC(=O)O)NC(=O)CSC[C@@H](C(=O)NCC(N)=O)NC(=O)[C@H](CO)NC(=O)[C@H](C(C)C)NC1=O [Example 1210] ({CH2CO}-EYDWV[Bip]R[NMeA][NMeF]RLVSCG-NH2; thioether N-14) is 7 or above.
RESULT: false

###

Target Of Assay: human PD-1 (Jurkat-PD-1 cells) / PE-labeled human PD-L1-Ig (Homo sapiens, UniProt Q15116)
Construct: expressed in transfected cells; host or cells: Jurkat cell line over-expressing human PD-1
Assay: Jurkat-PD-1 Cell Binding High-Content Screening Assay (CBA); Jurkat hPD1-PDL1 assay
Condition Label: Jurkat cell line over-expressing human PD-1; PE-labeled PD-L1-Ig 20 nM final; compound incubated 2 hours at 37° C.; read-out: Jurkat HPD1-PDL1 IC50
Positions of bridges follow the written chain, without caps; N, C: chain ends. Non-standard residues stand in square brackets, D forms with d. Residues, ends and D or L forms follow the SMILES beside them. Bip = N[C@@H](Cc1ccc(-c2ccccc2)cc1)C(=O)O; NMeF = CN[C@@H](Cc1ccccc1)C(=O)O; NMeA = CN[C@@H](C)C(=O)O; Nva = CCC[C@H](N)C(=O)O
Measure Name: pIC50
Scale explanation: pIC50 corresponds to minus log10 of a concentration expressed in moles per litre.

QUERY: I would be grateful if you could share the reported pIC50 for CCC[C@@H]1NC(=O)[C@H](Cc2c[nH]c3ccccc23)NC(=O)[C@H](CC(=O)O)NC(=O)[C@H](Cc2ccc(O)cc2)NC(=O)[C@H](Cc2ccccc2)NC(=O)CSC[C@@H](C(=O)NCC(N)=O)NC(=O)[C@H](CO)NC(=O)[C@H](C(C)C)NC(=O)[C@H](CC(C)C)NC(=O)[C@H](CCCNC(=N)N)NC(=O)[C@H](Cc2ccccc2)N(C)C(=O)[C@H](C)N(C)C(=O)[C@H](CCCNC(=N)N)NC(=O)[C@H](Cc2ccc(-c3ccccc3)cc2)NC1=O [Example 1335] ({CH2CO}-FYDW[Nva][Bip]R[NMeA][NMeF]RLVSCG-NH2; thioether N-14) .
RESULT: 6.85
